Biological target: Sterol O-acyltransferase 1 (Homo sapiens)
Sequence (P35610 whole entry): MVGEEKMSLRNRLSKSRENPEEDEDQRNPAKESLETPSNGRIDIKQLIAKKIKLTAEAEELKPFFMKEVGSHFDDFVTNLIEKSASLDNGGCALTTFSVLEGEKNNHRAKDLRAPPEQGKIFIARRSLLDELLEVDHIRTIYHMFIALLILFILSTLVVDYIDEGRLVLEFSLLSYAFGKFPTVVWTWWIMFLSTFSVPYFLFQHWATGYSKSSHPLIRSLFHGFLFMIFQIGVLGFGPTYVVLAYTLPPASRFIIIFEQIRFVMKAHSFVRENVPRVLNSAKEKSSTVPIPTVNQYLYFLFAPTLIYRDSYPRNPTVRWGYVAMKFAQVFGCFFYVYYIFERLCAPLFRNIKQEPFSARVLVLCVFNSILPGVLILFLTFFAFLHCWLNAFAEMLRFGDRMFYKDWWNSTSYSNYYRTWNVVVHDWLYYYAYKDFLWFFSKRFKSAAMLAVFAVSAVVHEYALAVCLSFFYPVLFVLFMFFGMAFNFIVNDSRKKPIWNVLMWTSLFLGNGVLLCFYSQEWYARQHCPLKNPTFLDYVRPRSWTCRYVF
Assay: Inhibition of human ACAT1 expressed in AC29 cells by cell-based fluorescent assay system
Recorded endpoint: IC50 (nM)
Field format: number, assumed nM, no unit text.

Data point: CC(C)=CC[C@@H](OC(=O)CC(C)C)C1=CC(=O)c2c(O)ccc(O)c2C1=O ; IC50 = 600

###

Molecular target: Sterol O-acyltransferase 2 (Homo sapiens)
Sequence (O75908 whole entry): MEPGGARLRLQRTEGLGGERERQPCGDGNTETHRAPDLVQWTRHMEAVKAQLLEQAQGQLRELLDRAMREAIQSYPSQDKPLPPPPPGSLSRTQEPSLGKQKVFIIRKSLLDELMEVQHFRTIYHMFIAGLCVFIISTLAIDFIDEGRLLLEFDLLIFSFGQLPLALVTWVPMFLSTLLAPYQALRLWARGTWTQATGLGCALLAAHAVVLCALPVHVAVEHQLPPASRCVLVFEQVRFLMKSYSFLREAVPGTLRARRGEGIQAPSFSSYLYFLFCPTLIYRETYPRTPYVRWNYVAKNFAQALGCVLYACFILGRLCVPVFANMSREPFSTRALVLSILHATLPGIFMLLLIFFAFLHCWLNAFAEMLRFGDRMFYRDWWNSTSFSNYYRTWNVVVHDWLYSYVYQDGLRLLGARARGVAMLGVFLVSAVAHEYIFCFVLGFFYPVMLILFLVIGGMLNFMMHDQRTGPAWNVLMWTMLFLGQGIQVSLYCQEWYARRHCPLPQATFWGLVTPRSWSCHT
Listing of recorded pIC50 by entry.
The value called pIC50 is obtained by taking minus log10 of the concentration in mol/L.

Molecule	Recorded endpoint	Quantitative readout
CC(C)=CC[C@@H](OC(=O)c1ccccc1)C1=CC(=O)c2c(O)ccc(O)c2C1=O	pIC50	4.25
CC(C)=CC[C@@H](O)C1=CC(=O)c2c(O)ccc(O)c2C1=O [SHIKONIN]	pIC50	3.86

# molecule CC(=O)O[C@H](CC=C(C)C)C1=CC(=O)c2c(O)ccc(O)c2C1=O [ACETYLSHIKONIN] ; its pIC50 = 3.95

CCCC(=O)O[C@H](CC=C(C)C)C1=CC(=O)c2c(O)ccc(O)c2C1=O has a reported pIC50 of 4.30
